# % Late apoptotic cells (UL) values compiled below
- Tested on: Caco-2 cancer cells
- protocol_summary: Apoptosis assay Annexin V/PI flow cytometry
- Format: cell-based
- recorded_conditions: Caco-2, IC50 dose, 24 h, AV/PI
Just the number please, in %, no unit attached.

Known results for molecules:
molecule="COC(=O)c1ccc2cc(-c3ccc4c(c3)CCCO4)ccc2c1 [Compound 3b, Methyl 6-(chroman-6-yl)−2-naphthoate]" measurement_unit=% readout_number=0.49
molecule="O=C(O)c1ccc2cc(-c3ccc4c(c3)CCCN4)ccc2c1 [Compound 4a]" measurement_unit=% readout_number=0.37
molecule="COC(=O)c1ccc2cc(-c3ccc4c(c3)CCCN4)ccc2c1 [Compound 3a]" measurement_unit=% readout_number=0.30

Task: Provide measured % Late apoptotic cells (UL) value, entry: CC1=C(/C=C/C(C)=C/C=C/C(C)=C/C(=O)O)C(C)(C)CCC1 [ATRA, all-trans-retinoic acid, reference compound]
Output: 0.03

Task: Provide measured % Late apoptotic cells (UL) value, entry: O=C(O)c1ccc2cc(-c3ccc4c(c3)CCCO4)ccc2c1 [Compound 4b, 6-(chroman-6-yl)−2-naphthoic acid]
Output: 0.09

----------
- Test system: Caspase-3 gene in Caco-2 cells
- protocol_summary: Gene expression RT-qPCR
- Type: cell-based
- recorded_conditions: Caco-2, IC50 dose, 24 h, relative to 0.1% DMSO, normalized to GAPDH
# caspase-3 gene expression fold change values compiled below

Known results for molecules:
molecule="CC1=C(/C=C/C(C)=C/C=C/C(C)=C/C(=O)O)C(C)(C)CCC1 [ATRA, all-trans-retinoic acid, reference compound]" measured_metric="caspase-3 gene expression fold change" result="1.6 ± 0.1 fold"
molecule="O=C(O)c1ccc2cc(-c3ccc4c(c3)CCCO4)ccc2c1 [Compound 4b, 6-(chroman-6-yl)−2-naphthoic acid]" measured_metric="caspase-3 gene expression fold change" result="2.3 ± 0.1 fold"

# evaluate next
Task: Provide measured caspase-3 gene expression fold change value, entry: COC(=O)c1ccc2cc(-c3ccc4c(c3)CCCN4)ccc2c1 [Compound 3a]
Output: 8.5 ± 0.4 fold

----------
- System: Caco-2 cancer cells
- protocol_summary: Cell cycle assay PI staining flow cytometry
- Format: cell-based
- recorded_conditions: Caco-2, IC50 dose, 24 h
- Experimental: The standard protocol used in HSBR was performed. […] Cells were concentrated at 1500 xg and suspended in 50 μg/ml propidium iodide (PI) staining solution and 20 µg/ml RNaseA to identify cells with a sub-G1 DNA content. Cytoflex flow cytometer (Beckman Coulter, USA) was used, and CytExpert software (version 2.4.0.28) was employed for data analysis. […]
measured_metric: % G2M (%)
Just the number please, in %, no unit attached.

Known results for compounds:
compound=COC(=O)c1ccc2cc(-c3ccc4c(c3)CCCN4)ccc2c1 measured_metric="% G2M" readout_number=2.41
compound=O=C(O)c1ccc2cc(-c3ccc4c(c3)CCCO4)ccc2c1 measured_metric="% G2M" readout_number=1.76

Task: Provide measured % G2M value, entry: O=C(O)c1ccc2cc(-c3ccc4c(c3)CCCN4)ccc2c1
Output: 2.26

Task: Provide measured % G2M value, entry: COC(=O)c1ccc2cc(-c3ccc4c(c3)CCCO4)ccc2c1 [Compound 3b, Methyl 6-(chroman-6-yl)−2-naphthoate]
Output: 1.74

Task: Provide measured % G2M value, entry: CC1=C(/C=C/C(C)=C/C=C/C(C)=C/C(=O)O)C(C)(C)CCC1 [ATRA, all-trans-retinoic acid, reference compound]
Output: 3.05

----------
# pIC50 values compiled below
- System: Caco-2
- protocol_summary: MTT anti-proliferative assay
- Type: cell-based
- recorded_conditions: Homo sapiens; Caco-2, MTT, 24 h, mean ± SEM
Interpret pIC50 as the negative base-10 log of the concentration measured in mol/L.

Known results for compounds:
compound=O=C(O)c1ccc2cc(-c3ccc4c(c3)CCCN4)ccc2c1 measured_metric=pIC50 readout_number=4.33
compound="CC1=C(/C=C/C(C)=C/C=C/C(C)=C/C(=O)O)C(C)(C)CCC1 [ATRA, all-trans-retinoic acid, reference compound]" measured_metric=pIC50 readout_number=4.94
compound=O=C(O)c1ccc2cc(-c3ccc4c(c3)CCCO4)ccc2c1 measured_metric=pIC50 readout_number=4.83

Task: Provide measured pIC50 value, entry: COC(=O)c1ccc2cc(-c3ccc4c(c3)CCCO4)ccc2c1 [Compound 3b, Methyl 6-(chroman-6-yl)−2-naphthoate]
Output: 4.84

Task: Provide measured pIC50 value, entry: COC(=O)c1ccc2cc(-c3ccc4c(c3)CCCN4)ccc2c1
Output: 5.02

----------
- System: total ATPase in Caco-2 cells
- protocol_summary: Total ATPase activity, malachite green colorimetric
- Assay type: cell-based
- recorded_conditions: Caco-2, IC50 dose, 24 h; 0.1% DMSO control normalized to 100%
- Procedure: The total activity of ATPase and calcium-independent ATPase activity was quantified colorimetrically as described by our previous protocol. […] The intensity of absorbance at 630 nm was measured using the BioTek 800 TS absorbance plate reader (USA) and was directly proportional to the quantity of liberated Pi. […]
# total ATPase activity values compiled below
Just the number please, in %, no unit attached.

Task: Provide measured total ATPase activity value, entry: CC1=C(/C=C/C(C)=C/C=C/C(C)=C/C(=O)O)C(C)(C)CCC1 [ATRA, all-trans-retinoic acid, reference compound]
Output: 42.2

Task: Provide measured total ATPase activity value, entry: O=C(O)c1ccc2cc(-c3ccc4c(c3)CCCO4)ccc2c1
Output: 34.6

Task: Provide measured total ATPase activity value, entry: O=C(O)c1ccc2cc(-c3ccc4c(c3)CCCN4)ccc2c1
Output: 23.7

Task: Provide measured total ATPase activity value, entry: COC(=O)c1ccc2cc(-c3ccc4c(c3)CCCO4)ccc2c1 [Compound 3b, Methyl 6-(chroman-6-yl)−2-naphthoate]
Output: 41

Task: Provide measured total ATPase activity value, entry: COC(=O)c1ccc2cc(-c3ccc4c(c3)CCCN4)ccc2c1
Output: 43.9

----------
- Test system: Caco-2 cancer cells
- protocol_summary: Cell cycle assay PI staining flow cytometry
- Format: cell-based
- recorded_conditions: Caco-2, IC50 dose, 24 h
Lab note: compare % G0-G1 against 20%. Equal or greater, write Satisfied. Smaller, write Not satisfied.

Look over these answered cases.
compound=O=C(O)c1ccc2cc(-c3ccc4c(c3)CCCO4)ccc2c1 label_class="Not satisfied"
compound=O=C(O)c1ccc2cc(-c3ccc4c(c3)CCCN4)ccc2c1 label_class="Not satisfied"
compound=COC(=O)c1ccc2cc(-c3ccc4c(c3)CCCN4)ccc2c1 label_class=Satisfied

Please examine the following record next.
Task: Reported % G0-G1 at or above 20%? CC1=C(/C=C/C(C)=C/C=C/C(C)=C/C(=O)O)C(C)(C)CCC1 [ATRA, all-trans-retinoic acid, reference compound]
Output: Not satisfied

----------
# IC50 values compiled below
- Test system: WI-38 normal human fibroblast cells
- protocol_summary: MTT cytotoxicity assay on normal fibroblasts
- Assay type: cell-based
- recorded_conditions: WI-38 normal fibroblast cells, 24 h, mean ± SEM
Just the number please, in µM, no unit attached.

Known results for compounds:
compound="O=C(O)c1ccc2cc(-c3ccc4c(c3)CCCO4)ccc2c1 [Compound 4b, 6-(chroman-6-yl)−2-naphthoic acid]" tested_on="WI-38 normal human fibroblast cells" measurement_unit=µM readout_number=33.5
compound="COC(=O)c1ccc2cc(-c3ccc4c(c3)CCCO4)ccc2c1 [Compound 3b, Methyl 6-(chroman-6-yl)−2-naphthoate]" tested_on="WI-38 normal human fibroblast cells" measurement_unit=µM readout_number=29.2

Task: Provide measured IC50 value, entry: COC(=O)c1ccc2cc(-c3ccc4c(c3)CCCN4)ccc2c1 [Compound 3a]
Output: 39.2

Task: Provide measured IC50 value, entry: CC1=C(/C=C/C(C)=C/C=C/C(C)=C/C(=O)O)C(C)(C)CCC1 [ATRA, all-trans-retinoic acid, reference compound]
Output: 46.9

Task: Provide measured IC50 value, entry: O=C(O)c1ccc2cc(-c3ccc4c(c3)CCCN4)ccc2c1 [Compound 4a]
Output: 43.7

----------
- System: Caco-2 cancer cells
- protocol_summary: Apoptosis assay Annexin V/PI flow cytometry
- Assay type: cell-based
- recorded_conditions: Caco-2, IC50 dose, 24 h, AV/PI
- Procedure: The standard protocol used in HSBR was performed. […] Cells were rinsed with 1 mL of binding buffer; the cells were again suspended in phosphate-buffered saline (PBS) (Lonza). […] The suspension was then mixed with 400 µL of ice-cold binding buffer, and each sample's apoptotic cells were analyzed using a Cytoflex flow cytometer (Beckman Coulter, USA), and CytExpert software (version 2.4.0.28) was employed for data analysis.
# % Viable cells (LL) values compiled below
Just the number please, in %, no unit attached.

Known results for compounds:
compound=COC(=O)c1ccc2cc(-c3ccc4c(c3)CCCN4)ccc2c1 tested_on="Caco-2 cancer cells" measured_metric="% Viable cells (LL)" readout_number=0.95
compound=O=C(O)c1ccc2cc(-c3ccc4c(c3)CCCN4)ccc2c1 tested_on="Caco-2 cancer cells" measured_metric="% Viable cells (LL)" readout_number=1.06

Task: Provide measured % Viable cells (LL) value, entry: COC(=O)c1ccc2cc(-c3ccc4c(c3)CCCO4)ccc2c1 [Compound 3b, Methyl 6-(chroman-6-yl)−2-naphthoate]
Output: 1.68

Task: Provide measured % Viable cells (LL) value, entry: O=C(O)c1ccc2cc(-c3ccc4c(c3)CCCO4)ccc2c1
Output: 0.37

Task: Provide measured % Viable cells (LL) value, entry: CC1=C(/C=C/C(C)=C/C=C/C(C)=C/C(=O)O)C(C)(C)CCC1 [ATRA, all-trans-retinoic acid, reference compound]
Output: 0.02

Cited source: paper PMC12718261
